Data provenance: paper PMC9837035

tgt: MLL4
measured-property: IC50

GET /values?readout=IC50&item= Cc1c(C(=O)NC(CCC2CC2)C(=O)Nc2ccc(C#N)cc2)[nH]c2c1C(=O)CC(C)(C)C2 (stereo not shown) > 100 µM

###

measurement-protocol: Caco-2 permeability assay
Format: in vitro ADME
condition-summary: human, Caco-2, B to A; replicate values; read-out: Papp B to A
measured-property: Papp B→A (×10⁻⁶ cm/s)
Numbers only, in ×10⁻⁶ cm/s.

GET /values?readout=Papp B→A&item= Cc1c(C(=O)NC(CCC2CC2)C(=O)Nc2ccc(C#N)cc2)[nH]c2c1C(=O)CC(C)(C)C2 (stereo not shown) 19.5

###

tgt: EZH2 (Y641F) (Homo sapiens, UniProt Q15910, Y641F)
measurement-protocol: biochemical
measured-property: IC50

GET /values?readout=IC50&item= Cc1c(C(=O)NC(CCC2CC2)C(=O)Nc2ccc(C#N)cc2)[nH]c2c1C(=O)CC(C)(C)C2 (stereo not shown) [RK-701] > 100 µM

###

tgt: SET7/9 (Homo sapiens)
Construct: purchased Reaction Biology
Sequence (Q8WTS6 whole entry): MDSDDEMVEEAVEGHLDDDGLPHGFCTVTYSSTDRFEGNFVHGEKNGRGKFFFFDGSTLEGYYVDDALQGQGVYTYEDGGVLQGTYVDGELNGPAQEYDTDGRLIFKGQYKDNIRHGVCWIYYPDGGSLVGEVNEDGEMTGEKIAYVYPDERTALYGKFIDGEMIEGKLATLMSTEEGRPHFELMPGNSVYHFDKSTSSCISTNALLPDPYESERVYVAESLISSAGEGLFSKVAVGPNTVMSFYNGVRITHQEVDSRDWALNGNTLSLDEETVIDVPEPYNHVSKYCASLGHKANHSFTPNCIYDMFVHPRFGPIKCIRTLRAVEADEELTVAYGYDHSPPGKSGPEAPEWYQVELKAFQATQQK
measurement-protocol: Radioisotope-based methyltransferase assay (selectivity)
Type: biochemical
condition-summary: SET7/9, 1 μM SAM
measured-property: IC50 (µM)
Numbers only, in µM.

GET /values?readout=IC50&item= Nc1ncnc2c1ncn2[C@@H]1O[C@H](CSCC[C@H](N)C(=O)O)[C@@H](O)[C@H]1O [SAH, S-(5'-Adenosyl)-L-homocysteine, reference compound] 81.8

###

measurement-protocol: Cell viability assay (WST-8), HUDEP-2
Format: cell-based, human
condition-summary: human, HUDEP-2 cells, 0.0411523 μM; control (0 μM) = 100
measured-property: viability at 0.0411523 μM (%)
Give bare numbers, in %.

{"columns": ["item-smiles", "viability at 0.0411523 μM [%]"],
 "data": [
  ["COc1cc2c(NC3CCN(C(C)C)CC3)nc(C3CCCCC3)nc2cc1OCCCN1CCCC1", 103]
]}

Attention now shifts to the item below.
GET /values?readout=viability at 0.0411523 μM&item= COc1cc2c(NC3CCN(C(C)C)CC3)nc(N3CCC(F)(F)CC3)nc2cc1OCCCN1CCCC1 86.5

###

tgt: MLL3 (Homo sapiens)
Construct: purchased Reaction Biology
measurement-protocol: Radioisotope-based methyltransferase assay (selectivity)
Assay type: biochemical
condition-summary: MLL3; RK-701 in duplicate
measured-property: IC50 (µM)
Numbers only, in µM.

Please provide the recorded IC50 for Nc1ncnc2c1ncn2[C@@H]1O[C@H](CSCC[C@H](N)C(=O)O)[C@@H](O)[C@H]1O [SAH, S-(5'-Adenosyl)-L-homocysteine, reference compound] , tested on MLL3 (Homo sapiens). 49.7

###

tgt: G9a SET domain (Homo sapiens)
Construct: the human G9a SET domain (residues 913–1193) was synthesized using the E. coli cell-free synthesis method; made in house; host or cells: E. coli cell-free synthesis
Sequence (Q96KQ7 913-1193): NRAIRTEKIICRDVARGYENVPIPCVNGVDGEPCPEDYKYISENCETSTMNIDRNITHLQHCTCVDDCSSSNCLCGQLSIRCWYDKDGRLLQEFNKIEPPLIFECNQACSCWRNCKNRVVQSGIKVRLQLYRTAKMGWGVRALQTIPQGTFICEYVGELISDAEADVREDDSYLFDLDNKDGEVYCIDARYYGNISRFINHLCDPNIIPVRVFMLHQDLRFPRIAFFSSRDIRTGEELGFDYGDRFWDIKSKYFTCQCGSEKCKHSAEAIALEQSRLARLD
measurement-protocol: Surface plasmon resonance (SPR)
Format: binding
condition-summary: single run; read-out: Dissociation constant (Kd)
measured-property: Kd

GET /values?readout=Kd&item= Cc1c(C(=O)N[C@H](CCC2CC2)C(=O)Nc2ccc(C#N)cc2)[nH]c2c1C(=O)CC(C)(C)C2 > 20 µM

###

tgt: PRMT7 (Homo sapiens)
Sequence (Q9NVM4 1-692): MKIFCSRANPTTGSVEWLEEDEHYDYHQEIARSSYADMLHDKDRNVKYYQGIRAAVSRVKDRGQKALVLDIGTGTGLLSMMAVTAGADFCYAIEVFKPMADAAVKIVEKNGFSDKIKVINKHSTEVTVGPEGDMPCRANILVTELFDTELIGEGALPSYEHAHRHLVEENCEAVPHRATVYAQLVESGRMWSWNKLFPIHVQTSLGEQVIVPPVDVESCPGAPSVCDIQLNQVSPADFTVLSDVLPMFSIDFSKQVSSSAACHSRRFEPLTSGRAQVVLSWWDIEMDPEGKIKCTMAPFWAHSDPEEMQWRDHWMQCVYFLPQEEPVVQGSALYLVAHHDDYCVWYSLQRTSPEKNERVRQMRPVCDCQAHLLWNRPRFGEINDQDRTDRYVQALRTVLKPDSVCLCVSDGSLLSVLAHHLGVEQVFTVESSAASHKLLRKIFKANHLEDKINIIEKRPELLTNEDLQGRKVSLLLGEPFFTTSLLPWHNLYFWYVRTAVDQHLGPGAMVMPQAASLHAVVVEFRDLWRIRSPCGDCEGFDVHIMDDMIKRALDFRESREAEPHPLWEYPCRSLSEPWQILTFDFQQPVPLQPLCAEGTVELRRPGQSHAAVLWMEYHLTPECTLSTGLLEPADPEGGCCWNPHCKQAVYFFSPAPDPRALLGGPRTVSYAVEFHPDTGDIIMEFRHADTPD
measured-property: IC50

GET /values?readout=IC50&item= Cc1c(C(=O)NC(CCC2CC2)C(=O)Nc2ccc(C#N)cc2)[nH]c2c1C(=O)CC(C)(C)C2 (stereo not shown) > 100 µM

###

Would you mind telling me the reported IC50 of each entry?
tgt: G9a (Homo sapiens)
measurement-protocol: In vitro G9a methyltransferase assay (AlphaLISA-based)
Type: biochemical
Parameters: purchased BPS Bioscience
condition-summary: G9a activity, AlphaLISA-based assay, mean of three experiments
One number for each entry, in µM.

{"columns": ["item-smiles", "measured-property", "numeric-readout"],
 "data": [
  ["CSCC[C@H](NC(=O)c1[nH]c2c(c1C)C(=O)CC(C)(C)C2)C(=O)Nc1ccccc1", "IC50", 0.3]
]}

Attention now shifts to the item below.
GET /values?readout=IC50&item= COC(=O)c1ccc2nc([C@H](CCSC)NC(=O)c3[nH]c4c(c3C)C(=O)CC(C)(C)C4)[nH]c2c1 21.3

###

tgt: DNMT3b (Homo sapiens, UniProt Q9UBC3)
measurement-protocol: Radioisotope-based methyltransferase assay (selectivity)
condition-summary: 1 μM SAM
measured-property: pIC50
Numbers only, as −log10 of the molar value.

GET /values?readout=pIC50&item= Nc1ncnc2c1ncn2[C@@H]1O[C@H](CSCC[C@H](N)C(=O)O)[C@@H](O)[C@H]1O [SAH, S-(5'-Adenosyl)-L-homocysteine, reference compound] 6.96

###

measurement-protocol: Liver microsomal stability assay, dog
Type: in vitro ADME
condition-summary: dog, liver microsomes, Metabolic stability, % remaining of RK-701, Dog; Time 30; replicate values
measured-property: remaining at 30 min, 1 µM (%)
Answers are plain numbers, in %.

GET /values?readout=remaining at 30 min, 1 µM&item= Cc1c(C(=O)NC(CCC2CC2)C(=O)Nc2ccc(C#N)cc2)[nH]c2c1C(=O)CC(C)(C)C2 (stereo not shown) [RK-701] 48.4

###

tgt: DOT1L (Homo sapiens)
Construct: purchased Reaction Biology
Sequence (Q8TEK3 whole entry): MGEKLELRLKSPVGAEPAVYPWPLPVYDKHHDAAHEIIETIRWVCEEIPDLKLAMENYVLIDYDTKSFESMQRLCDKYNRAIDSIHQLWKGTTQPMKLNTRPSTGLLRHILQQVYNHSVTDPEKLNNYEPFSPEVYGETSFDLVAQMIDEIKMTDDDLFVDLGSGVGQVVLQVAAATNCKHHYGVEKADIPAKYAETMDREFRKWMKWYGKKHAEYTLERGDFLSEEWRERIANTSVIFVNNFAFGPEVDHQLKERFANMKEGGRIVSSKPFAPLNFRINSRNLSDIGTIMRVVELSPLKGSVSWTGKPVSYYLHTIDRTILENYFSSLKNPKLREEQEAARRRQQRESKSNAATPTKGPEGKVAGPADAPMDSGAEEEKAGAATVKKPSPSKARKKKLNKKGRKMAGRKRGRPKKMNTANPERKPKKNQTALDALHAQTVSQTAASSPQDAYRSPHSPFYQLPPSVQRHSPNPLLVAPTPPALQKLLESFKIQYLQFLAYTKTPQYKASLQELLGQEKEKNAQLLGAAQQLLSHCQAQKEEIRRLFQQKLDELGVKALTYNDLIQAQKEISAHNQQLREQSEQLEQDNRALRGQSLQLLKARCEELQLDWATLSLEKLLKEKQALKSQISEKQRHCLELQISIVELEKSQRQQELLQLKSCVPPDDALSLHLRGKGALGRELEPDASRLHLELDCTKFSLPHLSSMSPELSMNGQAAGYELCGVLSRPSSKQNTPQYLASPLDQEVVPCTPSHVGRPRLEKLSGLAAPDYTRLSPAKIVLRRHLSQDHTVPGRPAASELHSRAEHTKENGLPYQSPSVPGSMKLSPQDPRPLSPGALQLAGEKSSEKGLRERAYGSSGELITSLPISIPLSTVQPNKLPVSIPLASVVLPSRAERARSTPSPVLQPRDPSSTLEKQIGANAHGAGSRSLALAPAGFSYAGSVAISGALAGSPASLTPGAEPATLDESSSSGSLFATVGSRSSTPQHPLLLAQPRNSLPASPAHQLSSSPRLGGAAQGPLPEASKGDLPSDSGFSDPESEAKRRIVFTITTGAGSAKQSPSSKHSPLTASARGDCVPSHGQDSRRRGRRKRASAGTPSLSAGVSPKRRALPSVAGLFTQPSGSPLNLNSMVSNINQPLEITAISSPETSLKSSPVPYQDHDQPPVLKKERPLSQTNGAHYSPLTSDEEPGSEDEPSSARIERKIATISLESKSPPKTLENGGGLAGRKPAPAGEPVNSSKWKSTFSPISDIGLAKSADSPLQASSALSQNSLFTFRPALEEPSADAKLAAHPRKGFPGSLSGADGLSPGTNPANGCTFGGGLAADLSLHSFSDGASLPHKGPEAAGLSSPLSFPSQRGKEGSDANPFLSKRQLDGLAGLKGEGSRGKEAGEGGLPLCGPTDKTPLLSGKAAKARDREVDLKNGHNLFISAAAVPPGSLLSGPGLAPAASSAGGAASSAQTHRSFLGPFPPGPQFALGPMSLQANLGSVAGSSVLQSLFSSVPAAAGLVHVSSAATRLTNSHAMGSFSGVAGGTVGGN
measurement-protocol: Radioisotope-based methyltransferase assay (selectivity)
Format: biochemical
condition-summary: 1 μM SAM
pIC50: −log10 of the molar value.
measured-property: pIC50

GET /values?readout=pIC50&item= Cc1c(C(=O)NC(CCC2CC2)C(=O)Nc2ccc(C#N)cc2)[nH]c2c1C(=O)CC(C)(C)C2 (stereo not shown) < 4.00

###

tgt: PRMT6 (Homo sapiens)
Sequence (Q96LA8 whole entry): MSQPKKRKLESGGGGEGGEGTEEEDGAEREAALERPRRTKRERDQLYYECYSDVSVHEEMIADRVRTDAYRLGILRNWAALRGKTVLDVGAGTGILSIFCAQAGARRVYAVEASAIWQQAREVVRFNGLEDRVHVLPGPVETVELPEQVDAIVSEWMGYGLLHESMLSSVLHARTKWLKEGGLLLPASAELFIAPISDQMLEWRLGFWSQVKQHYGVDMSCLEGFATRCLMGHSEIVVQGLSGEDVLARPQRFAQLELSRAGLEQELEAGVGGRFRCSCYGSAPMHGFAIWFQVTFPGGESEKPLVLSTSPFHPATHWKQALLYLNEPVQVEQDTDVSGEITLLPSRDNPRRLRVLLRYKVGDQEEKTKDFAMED
measurement-protocol: biochemical
measured-property: IC50 (nM)
Give bare numbers, in nM.

GET /values?readout=IC50&item= Nc1ncnc2c1ncn2[C@@H]1O[C@H](CSCC[C@H](N)C(=O)O)[C@@H](O)[C@H]1O [SAH, S-(5'-Adenosyl)-L-homocysteine, reference compound] 408

###

tgt: SUV420H1TV2 (Homo sapiens, UniProt Q4FZB7)
Construct: purchased Reaction Biology
Sequence (Q4FZB7 1-393 isoform Q4FZB7-2): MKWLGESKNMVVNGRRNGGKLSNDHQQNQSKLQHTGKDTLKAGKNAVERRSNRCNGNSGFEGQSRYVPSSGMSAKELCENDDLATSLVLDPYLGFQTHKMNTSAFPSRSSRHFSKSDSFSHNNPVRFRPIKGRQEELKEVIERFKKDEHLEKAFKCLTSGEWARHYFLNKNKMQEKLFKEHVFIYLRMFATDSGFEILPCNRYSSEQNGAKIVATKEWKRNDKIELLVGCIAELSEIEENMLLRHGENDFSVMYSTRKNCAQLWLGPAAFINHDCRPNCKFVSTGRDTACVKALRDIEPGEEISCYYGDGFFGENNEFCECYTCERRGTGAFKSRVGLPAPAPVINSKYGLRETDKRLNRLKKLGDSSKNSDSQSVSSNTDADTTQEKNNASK
measurement-protocol: Radioisotope-based methyltransferase assay (selectivity)
Assay type: biochemical
condition-summary: SUV420H1TV2; RK-701 in duplicate
measured-property: IC50

GET /values?readout=IC50&item= Cc1c(C(=O)NC(CCC2CC2)C(=O)Nc2ccc(C#N)cc2)[nH]c2c1C(=O)CC(C)(C)C2 (stereo not shown) > 100 µM

###

tgt: ASH1L (Homo sapiens, UniProt Q9NR48)
Construct: purchased Reaction Biology
measurement-protocol: Radioisotope-based methyltransferase assay (selectivity)
Type: biochemical
condition-summary: IC50, ASH1L; RK-701 in duplicate
measured-property: IC50 (nM)
Answers are plain numbers, in nM.

GET /values?readout=IC50&item= CN1C(=O)[C@@]23C[C@]4([C@]56C[C@@]78SS[C@@](CO)(C(=O)N7[C@H]5Nc5ccccc56)N(C)C8=O)c5ccccc5N[C@@H]4N2C(=O)[C@]1(CO)SS3 [Chaetocin, reference compound] 92.8
